# studyTarget: human CB1 receptor (Homo sapiens)
# experimentSummary: GTPγS binding on membranes of CHO cells expressing the human CB1 receptor
# particulars: CHO cell membranes, [35S] GTPγS
# EC50 listing for each entry below
// units = nM; emit number, no label

Examples with answers:
• CC(C)(C)[C@H](NC(=O)n1c(=O)n(CC2CCOCC2)c2cc(F)ccc21)c1nnc(N)o1 = 229
• Cc1cc(CNC(=O)n2c(=O)n(CC3CCOCC3)c3ccccc32)no1 = 380
• CC(C)(C)[C@H](NC(=O)n1c(=O)n(Cc2ccccc2)c2ccccc21)C(=O)NCCO = 149
• CC(C)(C)[C@@H](CO)NC(=O)n1c(=O)n(CC2CCCCC2)c2ccccc21 = 82.4
• CC(C)(C)[C@H](NC(=O)n1c(=O)n(CC2CCCCC2)c2ncccc21)C(N)=O = 62.1
• CC(C)(C)[C@H](NC(=O)n1c(=O)n(Cc2ccccc2)c2ccccc21)C(=O)NCCCO = 249
• CCCCCn1c(=O)n(C(=O)N[C@H]2CCCc3ccccc32)c2ccccc21 = 40.1
• CC(C)(C)[C@H](NC(=O)n1c(=O)n(CC2CCCCO2)c2ccccc21)C(N)=O (stereo partly drawn) = 176

Short answer for CC(C)(C)[C@H](NC(=O)n1c(=O)n(CC2CCOCC2)c2cc(F)ccc21)C(N)=O : EC50 was 25.1

Short answer for CC(C)(C)[C@H](NC(=O)n1c(=O)n(CC2CCC(F)(F)CC2)c2ccccc21)C(N)=O : EC50 was 3.45

Short answer for CC(C)(C)[C@H](NC(=O)n1c(=O)n(CC2CCCCC2)c2cc(Cl)ccc21)C(N)=O : EC50 was 1.86

---

# pEC50 listing for each entry below
# studyTarget: human CB1 receptor (Homo sapiens, UniProt P21554)
# Sequence (P21554 whole entry): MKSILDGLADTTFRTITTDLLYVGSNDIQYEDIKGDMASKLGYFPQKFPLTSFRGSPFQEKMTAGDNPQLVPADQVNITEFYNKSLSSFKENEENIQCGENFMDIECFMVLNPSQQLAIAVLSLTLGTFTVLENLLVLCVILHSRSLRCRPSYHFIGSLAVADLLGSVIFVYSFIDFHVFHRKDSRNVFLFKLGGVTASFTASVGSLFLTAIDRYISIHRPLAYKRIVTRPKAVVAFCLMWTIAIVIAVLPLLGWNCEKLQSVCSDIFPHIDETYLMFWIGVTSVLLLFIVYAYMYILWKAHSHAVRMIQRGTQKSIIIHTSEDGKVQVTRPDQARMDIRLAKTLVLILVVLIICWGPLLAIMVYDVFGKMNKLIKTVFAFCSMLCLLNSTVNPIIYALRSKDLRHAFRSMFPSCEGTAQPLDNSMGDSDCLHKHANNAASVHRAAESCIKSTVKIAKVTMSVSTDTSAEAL
# experimentSummary: GTPγS binding on membranes of CHO cells expressing the human CB1 receptor
# particulars: CHO cell membranes, [35S] GTPγS
Answer as the number alone; pEC50 is minus log10 of concentration in mol/L.

* CC(C)(C)[C@H](NC(=O)n1c(=O)n(CC2CCOCC2)c2ccccc21)C(=O)NC1CCC1 | 6.59

Short answer for CC(C)(C)[C@H](NC(=O)n1c(=O)n(CC2CCOCC2)c2ccccc21)C(N)=O : pEC50 was 7.90

Short answer for O=C(N[C@H]1CCCc2ccccc21)n1c(=O)n(CC2CCCCC2)c2ccccc21 : pEC50 was 7.88

---

# Ki listing for each entry below
# studyTarget: human CB1 receptor (Homo sapiens, UniProt P21554)
// units = nM; emit number, no label

- CC(C)(C)[C@H](NC(=O)n1c(=O)n(CCC2CCC2)c2ccccc21)C(N)=O: 1.28
- CC(C)(C)[C@H](NC(=O)n1c(=O)n(CC2CCOCC2)c2cc(F)ccc21)c1nnc(N)o1: 9.5
- CC(C)(C)[C@H](NC(=O)n1c(=O)n(CC2CCOCC2)c2cc(F)ccc21)C(=O)NC1CC1: 30.2
- CC(C)(C)[C@H](NC(=O)n1c(=O)n(CC2CCCCC2)c2cc(F)ccc21)C(N)=O: 0.28
- CC(C)(C)[C@H](NC(=O)n1c(=O)n(CC2CCCCC2)c2cc(Br)ccc21)C(N)=O: 1.85

Short answer for Cc1nc(CNC(=O)n2c(=O)n(CC3CCOCC3)c3ccccc32)cs1 : Ki was 24.7
